- target or system: Sodium-dependent serotonin transporter (Homo sapiens, UniProt P31645);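 note: uptake of tritiated serotonin into the transfected cells, quantified by MicroBeta scintillation counting over a 15–20 min period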
- Sequence (P31645 whole entry, looked up): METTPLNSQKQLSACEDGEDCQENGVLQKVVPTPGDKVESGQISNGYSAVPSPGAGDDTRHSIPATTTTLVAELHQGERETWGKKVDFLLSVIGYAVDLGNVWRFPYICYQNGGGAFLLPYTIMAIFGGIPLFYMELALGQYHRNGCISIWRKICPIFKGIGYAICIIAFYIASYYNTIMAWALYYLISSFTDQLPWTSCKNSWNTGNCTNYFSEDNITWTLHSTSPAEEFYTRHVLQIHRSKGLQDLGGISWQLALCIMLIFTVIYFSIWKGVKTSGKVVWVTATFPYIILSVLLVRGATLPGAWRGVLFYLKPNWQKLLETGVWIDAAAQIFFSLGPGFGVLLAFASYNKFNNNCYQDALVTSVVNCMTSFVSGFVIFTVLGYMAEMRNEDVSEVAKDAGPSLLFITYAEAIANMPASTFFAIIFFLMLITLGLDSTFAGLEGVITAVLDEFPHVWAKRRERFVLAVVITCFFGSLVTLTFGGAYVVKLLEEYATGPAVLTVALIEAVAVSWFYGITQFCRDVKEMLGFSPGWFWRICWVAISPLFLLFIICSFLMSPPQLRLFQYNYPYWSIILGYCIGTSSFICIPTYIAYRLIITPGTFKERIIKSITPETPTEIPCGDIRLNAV
- condition summary: HEK293, at 1 µM
- Description: Inhibition of [3H]serotonin uptake at human SERT expressed in HEK293 cells at 1 uM after 15 to 20 mins by microbeta scintillation counting method
Give inhibition for every item shown.
Just the number in %, nothing appended.

Exercise: Could you share which inhibition value was measured for COc1ccccc1N1CCN(CCCOc2ccc3ccccc3c2)CC1 ?
Solution: 56.4

Exercise: What does the record list as inhibition for Clc1cccc(N2CCN(CCCOc3ccc4ccccc4c3)CC2)c1Cl ?
Solution: 37.5

Exercise: Can you share its inhibition? I mean this compound: c1ccc(N2CCN(CCOc3ccc4ccccc4c3)CC2)nc1
Solution: 54

Exercise: Looking for the measured inhibition of c1cnc(N2CCN(CCCCOc3ccc4ccccc4c3)CC2)nc1 , can you help?
Solution: 32

Exercise: Look at this compound and give its reported inhibition. FC(F)(F)c1ccc(N2CCN(CCCCOc3ccc4ccccc4c3)CC2)cc1
Solution: 59.2

Exercise: Give the measured inhibition of c1ccc(N2CCN(CCOc3ccc4ccccc4c3)CC2)cc1 .
Solution: 7.2

Exercise: Give its inhibition value. Item: Clc1ccc(N2CCN(CCCCOc3ccc4ccccc4c3)CC2)c(Cl)c1
Solution: 51

Exercise: Sample Clc1ccc(N2CCN(CCOc3ccc4ccccc4c3)CC2)c(Cl)c1 — what was its inhibition?
Solution: 61.4

Exercise: So what's the measured inhibition for this one? c1cnc(N2CCN(CCCOc3ccc4ccccc4c3)CC2)nc1
Solution: 23.8

Exercise: Find the recorded inhibition belonging to COc1ccccc1N1CCN(CCOc2ccc3ccccc3c2)CC1 and report it.
Solution: 48.7

Exercise: Consider the compound shown here: Cc1cccc(C)c1N1CCN(CCOc2ccc3ccccc3c2)CC1 What is its recorded inhibition?
Solution: 24.6

----------
- target or system: Sodium-dependent noradrenaline transporter (Homo sapiens, UniProt P23975)
- Sequence (P23975 whole entry): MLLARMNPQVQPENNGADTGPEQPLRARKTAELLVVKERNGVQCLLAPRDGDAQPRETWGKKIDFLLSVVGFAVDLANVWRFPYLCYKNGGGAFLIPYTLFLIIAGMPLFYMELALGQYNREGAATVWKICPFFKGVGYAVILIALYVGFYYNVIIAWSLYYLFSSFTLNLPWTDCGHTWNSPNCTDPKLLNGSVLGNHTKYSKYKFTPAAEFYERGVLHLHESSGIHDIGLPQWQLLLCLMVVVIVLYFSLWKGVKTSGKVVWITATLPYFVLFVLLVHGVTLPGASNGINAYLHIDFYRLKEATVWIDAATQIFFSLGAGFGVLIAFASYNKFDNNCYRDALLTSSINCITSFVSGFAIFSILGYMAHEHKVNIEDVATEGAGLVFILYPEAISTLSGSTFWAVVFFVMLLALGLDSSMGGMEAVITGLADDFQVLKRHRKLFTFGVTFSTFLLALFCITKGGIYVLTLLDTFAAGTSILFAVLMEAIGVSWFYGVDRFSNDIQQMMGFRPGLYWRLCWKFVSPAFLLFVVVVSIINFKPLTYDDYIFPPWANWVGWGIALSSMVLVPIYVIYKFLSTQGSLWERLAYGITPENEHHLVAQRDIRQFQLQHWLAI
- test method notes: Inhibition of [3H]norepinephrine uptake at human NET expressed in HEK293 cells at 10 uM after 15 to 20 mins by microbeta scintillation counting method
- Type: cell-based
Could you please report measured inhibition for the items listed next?
All answers are understood in %, so give the number only.

Exercise: Looking for the measured inhibition of c1ccc(N2CCN(CCCCOc3ccc4ccccc4c3)CC2)nc1 , can you help?
Solution: 59

Exercise: Requested read-out: inhibition. Entry: Fc1ccc(N2CCN(CCCOc3ccc4ccccc4c3)CC2)cc1
Solution: 23.3

Exercise: Reported inhibition for COc1ccccc1N1CCN(CCOc2ccc3ccccc3c2)CC1 : what is it?
Solution: 21

Exercise: Name the recorded inhibition for Clc1ccc(N2CCN(CCCOc3ccc4ccccc4c3)CC2)cc1 .
Solution: 25.7

Exercise: Form field: reported inhibition of COc1ccccc1N1CCN(CCCOc2ccc3ccccc3c2)CC1
Solution: 85.3

Exercise: Look up inhibition for this compound: Clc1cccc(N2CCN(CCCOc3ccc4ccccc4c3)CC2)c1Cl
Solution: 45

Exercise: Which inhibition reading was recorded for the compound Clc1ccc(N2CCN(CCCCOc3ccc4ccccc4c3)CC2)cc1 ?
Solution: 69.3

Exercise: // returns reported inhibition for input FC(F)(F)c1ccc(N2CCN(CCOc3ccc4ccccc4c3)CC2)cc1
Solution: 23.1

Exercise: Reported inhibition for Cc1cccc(C)c1N1CCN(CCCCOc2ccc3ccccc3c2)CC1 : what is it?
Solution: 74.4

Exercise: Sample Clc1cccc(N2CCN(CCCCOc3ccc4ccccc4c3)CC2)c1Cl — what was its inhibition?
Solution: 60.7

Exercise: Which value of inhibition has been reported for c1cnc(N2CCN(CCCCOc3ccc4ccccc4c3)CC2)nc1 in the records?
Solution: 31
